We begin with a simple list: items and their reported inhibition.
biological target: Protein S100-A4 (Homo sapiens) (UniProt P26447); experiment: inhibitors of S100A4-myosin IIA peptide binding, primary screen, biochemical, fluorescence polarization, TAMRA-MyoIIA peptide (AID 652163); settings: at 10.7 µM, active compounds read high
Sequence (P26447 whole entry, looked up): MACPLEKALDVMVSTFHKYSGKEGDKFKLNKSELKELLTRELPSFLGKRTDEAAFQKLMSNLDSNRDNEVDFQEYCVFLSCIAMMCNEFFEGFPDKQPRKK
Hit rate of the full screen: of about 360,000 compounds, about 500 (0.14%) were called active. The sample as a whole holds a higher share of actives than the screen did.
// note: answer is a bare numeric in %

> print(dat)
                                   molecule  measurement.kind  endpoint.unit  reported.value
1  Nc1ncnc2c1ncn2C1OC(CO)CC1O (stereo not given)        inhibition              %           0.763

// inhibition value for O=C([C@H]1N[C@H]2c3ccc(-c4ccccc4)c(=O)n3C[C@H]2[C@@H]1CO)N1CCOCC1 : -1.77

So, Cc1cccc(S(=O)(=O)N2C[C@@H]3[C@H](c4ccccc42)[C@H](CO)N3CC2CCOCC2)c1 ? Its inhibition was 86.4

Consider Cc1cccc(S(=O)(=O)N2C[C@@H]3[C@H](c4ccccc42)[C@@H](CO)N3C(=O)c2ccccc2)c1 . Its measured inhibition is 3.03

The molecule listed as Cn1cnc(S(=O)(=O)N2C[C@@H](O)COC[C@@H]3O[C@H](CC(=O)NC4CCC4)CC[C@H]32)c1 has a reported inhibition of 0.326
